# Test system: Aspergillus terreus AT4
# ASSAY_SUMMARY: MIC (YAG medium)
# Format: cell-based
# RUN_PARAMETERS: Aspergillus terreus; YAG medium; MIC banded into grades; AT4; read-out: MIC A. terreus (grade)
Consider the following compounds and their measured MIC readings.

- COMPOUND: "CN1CCN(c2ccc(NC(=O)C(=O)c3c(-c4ccccc4)cc4ccccn34)cc2-c2ncco2)CC1 [Example 19]"
  MIC: "1 to 10 µg/mL"
- COMPOUND: "O=C(Nc1ccc(-c2cocn2)cc1)C(=O)c1c(-c2ccc(-c3ccccc3)cc2)cc2ccccn12 [Example 85]"
  MIC: "< 1 µg/mL"
- COMPOUND: "Cc1cc(C)nc(N(C)CCOc2ccc(NC(=O)C(=O)c3c(-c4ccccc4)cc4ccccn34)cc2)c1 [Example 64]"
  MIC: "< 1 µg/mL"
- COMPOUND: "Cc1cc(N2CCN(c3ccc(NC(=O)C(=O)c4c(-c5ccccc5)cc5ccccn45)cc3)CC2)cc(C)n1 [Example 52]"
  MIC: "> 10 µg/mL"

* * *

Recorded measurements of MIC, one per entry
# Tested on: Aspergillus fumigatus AF293
# ASSAY_SUMMARY: MIC (YAG medium)
# Format: cell-based
# RUN_PARAMETERS: Aspergillus fumigatus; YAG medium; MIC banded into grades; AF293; read-out: MIC A. fumigatus (grade)

- COMPOUND: "O=C(Nc1ccc(N2CCN(CCc3ccco3)CC2)cc1)C(=O)c1c(-c2ccccc2)cc2ccccn12 [Example 39]"
  MIC: "< 1 µg/mL"
- COMPOUND: "Cc1cc(C)nc(N2CCN(c3ccc(NC(=O)C(=O)c4c(C(C)C)cc5ccccn45)cc3)CC2)c1 [Example 61]"
  MIC: "< 1 µg/mL"
- COMPOUND: "Cc1c(-c2ccccc2)c2ccccn2c1C(=O)C(=O)Nc1ccc(N2CCOCC2)cc1 [Example 7]"
  MIC: "> 10 µg/mL"
- COMPOUND: "O=C(Nc1ccc(N2CCC3(CC2)OCCO3)cc1)C(=O)c1c(-c2ccccc2)cc2ccccn12 [Example 23]"
  MIC: "< 1 µg/mL"
- COMPOUND: "CC(C)(C)CN1CCN(c2ccc(NC(=O)C(=O)c3c(-c4ccccc4)cc4ccccn34)nc2)CC1 [Example 50]"
  MIC: "< 1 µg/mL"
- COMPOUND: "Cc1cc(C)nc(N2CCN(c3cccc(NC(=O)C(=O)c4c(-c5ccccc5)cc5ccccn45)c3)CC2)c1 [Example 48]"
  MIC: "< 1 µg/mL"
- COMPOUND: "O=C(Nc1ccc(N2CCN(c3ccc(CN4CCOCC4)cc3)CC2)cc1)C(=O)c1c(-c2ccccc2)cc2ccccn12 [Example 56]"
  MIC: "< 1 µg/mL"
- COMPOUND: "C=C(C)CN1CCN(c2ccc(NC(=O)C(=O)c3c(-c4ccc(N5CCOCC5)cc4)cc4ccccn34)cc2)CC1 [Example 40]"
  MIC: "> 10 µg/mL"
- COMPOUND: "CN1/C(=N/c2ccc(NC(=O)C(=O)c3c(-c4ccccc4)cc4ccccn34)cc2)OCC1(C)C [Example 8]"
  MIC: "> 10 µg/mL"
- COMPOUND: "Cc1cc(C)nc(N(C)CCCN(C)c2ccc(NC(=O)C(=O)c3c(-c4ccccc4)cc4ccccn34)cc2)c1 [Example 67]"
  MIC: "< 1 µg/mL"
- COMPOUND: "COCCOc1cc(C)nc(N2CCN(c3ccc(NC(=O)C(=O)c4c(-c5ccccc5)cc5ccccn45)cc3)CC2)c1 [Example 57]"
  MIC: "< 1 µg/mL"
- COMPOUND: "CC(C)c1nccn1CCOC(=O)C(C)(C)c1ccc(NC(=O)C(=O)c2c(-c3ccccc3)cc3ccccn23)cc1 [Example 18]"
  MIC: "> 10 µg/mL"
- COMPOUND: "COCc1cc(NC(=O)C(=O)c2c(-c3ccccc3)cc3ccccn23)ccc1N1CCN(c2cc(C)cc(C)n2)CC1 [Example 81]"
  MIC: "< 1 µg/mL"
- COMPOUND: "O=C(Nc1cnccc1N1CCN(Cc2cccs2)CC1)C(=O)c1c(-c2ccccc2)cc2ccccn12 [Example 37]"
  MIC: "< 1 µg/mL"
- COMPOUND: "Cc1cc(NC(=O)C(=O)c2c(-c3ccccc3)cc3ccccn23)ccc1OCCCn1ccnc1C(C)C [Example 12]"
  MIC: "1 to 10 µg/mL"
- COMPOUND: "Cc1cc(C)nc(N2CCN(c3ccc(NC(=O)C(=O)c4c(-c5ccccc5)cc5ccccn45)cc3C(=O)O)CC2)c1 [Example 84]"
  MIC: "< 1 µg/mL"
- COMPOUND: "O=C(Nc1ccc(N2CCS(=O)(=O)CC2)cc1)C(=O)c1c(-c2ccccc2)cc2ccccn12 [Example 1]"
  MIC: "> 10 µg/mL"
- COMPOUND: "Cc1cc(C)nc(N2CCN(c3ccc(NC(=O)C(=O)c4c(-c5ccccc5)cc5ccc(F)cn45)cc3)CC2)c1 [Example 32]"
  MIC: "< 1 µg/mL"
- COMPOUND: "COCc1cc(N2CCN(c3cc(C)cc(C)n3)CC2)ccc1NC(=O)C(=O)c1c(-c2ccccc2)cc2ccccn12 [Example 83]"
  MIC: "< 1 µg/mL"
- COMPOUND: "CN1CCN(c2oc(-c3ccc(NC(=O)C(=O)c4c(-c5ccccc5)cc5ccccn45)cc3)nc2C(=O)C(F)(F)F)CC1 [Example 29]"
  MIC: "< 1 µg/mL"
- COMPOUND: "Cc1cc(C)nc(N2CCN(c3ccc(NC(=O)C(=O)c4c(C5CCCC5)cc5ccccn45)cc3)CC2)c1 [Example 47]"
  MIC: "< 1 µg/mL"
- COMPOUND: "Cc1ccc(N2CCN(c3ccc(NC(=O)C(=O)c4c(-c5ccccc5)cc5ccccn45)cc3)CC2)nc1 [Example 74]"
  MIC: "< 1 µg/mL"
- COMPOUND: "Cc1cc(N2CCN(c3ccc(NC(=O)C(=O)c4c(-c5ccccc5)cc5ccccn45)cc3)CC2)cc(C)n1 [Example 52]"
  MIC: "> 10 µg/mL"
- COMPOUND: "O=C(Nc1ccc(-c2cocn2)cc1)C(=O)c1c(-c2ccc(-c3ccccc3)cc2)cc2ccccn12 [Example 85]"
  MIC: "> 10 µg/mL"
- COMPOUND: "Cc1cc(C)nc(CCCCc2ccc(NC(=O)C(=O)c3c(-c4ccccc4)cc4ccccn34)cc2)c1 [Example 72]"
  MIC: "< 1 µg/mL"
- COMPOUND: "O=C(Nc1ccc(N2CCN(S(=O)(=O)c3cccnc3)CC2)cc1)C(=O)c1c(-c2ccccc2)cc2ccccn12 [Example 51]"
  MIC: "< 1 µg/mL"
- COMPOUND: "Cc1cc(C)nc(N2CCN(c3ccc(NC(=O)C(=O)c4c(C5CC5)cc5ccccn45)cc3)CC2)c1 [Example 58]"
  MIC: "< 1 µg/mL"
- COMPOUND: "Cc1cc(C)nc(NCCNc2ccc(NC(=O)C(=O)c3c(-c4ccccc4)cc4ccccn34)cc2)c1 [Example 92]"
  MIC: "< 1 µg/mL"
- COMPOUND: "Cc1cc(C)nc(N2CCN(c3ccc(NC(=O)C(=O)c4c(C5CCCCC5)cc5ccccn45)cc3)CC2)c1 [Example 60]"
  MIC: "< 1 µg/mL"
